Give measured SILAC ratio Slc25a12 for each item. Keep answers brief.
Target: AEA-DA lipid probe targets in Neuro2a cells (Mus musculus, UniProt Q8BH59)
Sequence (Q8BH59 whole entry): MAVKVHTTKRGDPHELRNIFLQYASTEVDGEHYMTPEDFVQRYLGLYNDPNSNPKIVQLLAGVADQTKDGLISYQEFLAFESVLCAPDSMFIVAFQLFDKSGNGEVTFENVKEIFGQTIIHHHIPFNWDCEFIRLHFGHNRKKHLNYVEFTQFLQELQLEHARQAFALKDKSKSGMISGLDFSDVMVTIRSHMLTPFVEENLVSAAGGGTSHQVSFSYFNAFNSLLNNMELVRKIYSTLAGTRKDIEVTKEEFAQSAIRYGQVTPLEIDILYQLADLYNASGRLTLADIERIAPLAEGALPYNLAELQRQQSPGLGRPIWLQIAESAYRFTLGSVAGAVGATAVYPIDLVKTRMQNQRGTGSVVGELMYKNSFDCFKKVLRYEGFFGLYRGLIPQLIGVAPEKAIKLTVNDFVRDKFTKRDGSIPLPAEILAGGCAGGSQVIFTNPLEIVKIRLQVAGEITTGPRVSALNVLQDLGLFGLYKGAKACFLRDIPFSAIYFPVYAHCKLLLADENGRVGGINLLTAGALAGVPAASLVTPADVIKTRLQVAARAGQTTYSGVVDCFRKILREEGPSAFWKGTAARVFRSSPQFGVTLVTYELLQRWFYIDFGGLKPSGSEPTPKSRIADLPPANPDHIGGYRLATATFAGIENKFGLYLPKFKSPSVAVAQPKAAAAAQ
Conditions: competitor 25 μM
Answers are plain numbers.

C=CCN(C)CCCCCCOc1ccc(C(=O)c2ccc(Br)cc2)c(F)c1 [Ro 48-8071, reference compound]; 1.0

I would be grateful if you could provide SILAC ratio Slc25a12 for each of the following entries.
1. O=C(/C=C/c1cccnc1)NCCCCC1CCN(C(=O)c2ccccc2)CC1 [FK-866, reference compound]
2. CN1CCN(C(=O)c2c(-c3ccccc3)c3cc([N+](=O)[O-])ccc3n2C)CC1

Result string:
1: 1.1; 2: 1.1

Query string: Please list SILAC ratio Slc25a12 recorded for the molecule `CN1CCN(C(=O)c2[nH]c3ccc([N+](=O)[O-])cc3c2-c2ccccc2)CC1`
Result string: 1.0
